Each entry below lists one item and its recorded Phage binding ELISA signal, Anti-PSMA Fab value.
Target: T1, PSMA Fab (006 PSMA Fab) (Fab biotinylated for capture on neutravidin plates (site not stated))
T1 construct: also called Anti-PSMA Fab; anti-PSMA Fab
Assay: phage ELISA: clonal phage supernatant on biotinylated PSMA Fab captured on neutravidin plate, blocking buffer alone, anti-M13-HRP detection
Respond with the number and no other words.

TDHLCVPSWMCLGF [Phage-3081 (peptide-180 library clone)] ... 2.11
TYMMCVPEWMCQGF [Phage-3078 (peptide-180 library clone)] ... 2.11
VDLICRPAWMCSGF [Phage-3087 (peptide-180 library clone)] ... 2.1
LEHMCRPSWMCTGF [Phage-3085 (peptide-180 library clone)] ... 2.1
HLMACKPAWMCLGL [Phage-3079 (peptide-180 library clone)] ... 2.11
FWAQCVPPWMCSGF [Phage-3086 (peptide-180 library clone)] ... 2.1
GQNLCIPSWMCEGF [Phage-3083 (peptide-180 library clone)] ... 2.11
LDAMCRPLWMCSGF [Phage-3084 (peptide-180 library clone)] ... 2.11
DEWICRPAWMCQGF [Phage-3076 (peptide-180 library clone)] ... 2.12

QUERY: Entry EWMKCVPLWMCEGI [Phage-3080 (peptide-180 library clone)] : reported Phage binding ELISA signal, Anti-PSMA Fab = ?
RESULT: 2.11
